Kindly supply the reported pKi values for the records listed here.
molecular target: human 5-HT6 receptor (Homo sapiens (Human)); test: 5-HT6 radioligand binding assay (SPA format, [N-methyl-3H]-LSD); settings: human 5-HT6 receptor membranes, 10 nM [N-methyl-3H]-LSD; Ki by Cheng-Prusoff; read-out: human 5HT6 Ki
Sequence (P50406 whole entry): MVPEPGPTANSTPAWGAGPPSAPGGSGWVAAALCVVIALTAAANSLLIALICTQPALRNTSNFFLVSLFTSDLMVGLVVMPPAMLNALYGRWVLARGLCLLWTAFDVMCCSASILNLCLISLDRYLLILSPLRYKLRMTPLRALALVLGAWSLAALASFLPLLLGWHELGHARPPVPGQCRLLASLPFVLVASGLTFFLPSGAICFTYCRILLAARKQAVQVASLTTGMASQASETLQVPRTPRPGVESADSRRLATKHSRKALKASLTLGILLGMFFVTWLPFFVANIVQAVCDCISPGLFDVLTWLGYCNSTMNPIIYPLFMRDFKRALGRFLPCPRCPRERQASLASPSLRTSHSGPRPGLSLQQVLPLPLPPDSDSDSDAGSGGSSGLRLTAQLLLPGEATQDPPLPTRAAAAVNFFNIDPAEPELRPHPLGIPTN
Counter-ions that a name gives are not always drawn.
// pKi here means minus log10 of the molar concentration (mol/L)

stdin: Request - read-out pKi | tested on human 5-HT6 receptor (Homo sapiens (Human)) | molecule Cl.O=S(=O)(c1ccccc1)c1cc(F)c2oc3c(c2c1)CNCC3 [Example 52, hydrochloride]
stdout: 8.29

stdin: Request - read-out pKi | tested on human 5-HT6 receptor (Homo sapiens (Human)) | molecule Cl.O=S(=O)(c1ccccc1)c1cc(Cl)c2oc3c(c2c1)C(CO)NCC3 (stereo not drawn) [Example 85, hydrochloride]
stdout: 8.80

stdin: Request - read-out pKi | tested on human 5-HT6 receptor (Homo sapiens (Human)) | molecule COc1cc(S(=O)(=O)c2cccs2)cc2c3c(oc12)CCNC3
stdout: 9.77

stdin: Request - read-out pKi | tested on human 5-HT6 receptor (Homo sapiens (Human)) | molecule O=S(=O)(c1cc(Cl)c2oc3c(c2c1)CNCC3)c1ccccc1Cl
stdout: 9.11

stdin: Request - read-out pKi | tested on human 5-HT6 receptor (Homo sapiens (Human)) | molecule O=S(=O)(c1cc(Cl)cc(Cl)c1)c1cc(Cl)c2oc3c(c2c1)CNCC3
stdout: 8.22

stdin: Request - read-out pKi | tested on human 5-HT6 receptor (Homo sapiens (Human)) | molecule O=S(=O)(c1ccccc1)c1cc(OCCO)c2oc3c(c2c1)CNCC3
stdout: 8.80

stdin: Request - read-out pKi | tested on human 5-HT6 receptor (Homo sapiens (Human)) | molecule CC(c1ccccc1)c1cc(Cl)c2oc3c(c2c1)CNCC3.Cl (stereo not drawn) [Example 95, hydrochloride]
stdout: 8.12

stdin: Request - read-out pKi | tested on human 5-HT6 receptor (Homo sapiens (Human)) | molecule Cl.N#Cc1cccc(S(=O)(=O)c2cc(Cl)c3oc4c(c3c2)CNCC4)c1 [Example 48, hydrochloride]
stdout: 7.92

stdin: Request - read-out pKi | tested on human 5-HT6 receptor (Homo sapiens (Human)) | molecule Cc1cc(S(=O)(=O)c2cc(F)cc(F)c2)cc2c3c(oc12)CCNC3
stdout: 8.89

stdin: Request - read-out pKi | tested on human 5-HT6 receptor (Homo sapiens (Human)) | molecule CC(O)CN1CCc2oc3c(Cl)cc(S(=O)(=O)c4ccccc4)cc3c2C1 (stereo not drawn)
stdout: 8.77

stdin: Request - read-out pKi | tested on human 5-HT6 receptor (Homo sapiens (Human)) | molecule CC(C)(O)c1ccccc1S(=O)(=O)c1cc(Cl)c2oc3c(c2c1)CNCC3
stdout: 7.60

stdin: Request - read-out pKi | tested on human 5-HT6 receptor (Homo sapiens (Human)) | molecule COc1cc(S(=O)(=O)c2ccc3[nH]ccc3c2)cc2c3c(oc12)CCNC3 [Example 70, hydrochloride]
stdout: 10.08

stdin: Request - read-out pKi | tested on human 5-HT6 receptor (Homo sapiens (Human)) | molecule Cl.O=S(=O)(c1ccccc1)c1cc(Cl)c2oc3c(c2c1)CNCC3 [Example 44, hydrochloride]
stdout: 9.26

stdin: Request - read-out pKi | tested on human 5-HT6 receptor (Homo sapiens (Human)) | molecule Cl.O=S(=O)(c1cccc(F)c1)c1cc(Cl)c2oc3c(c2c1)CNCC3 [Example 47, hydrochloride]
stdout: 9.41

stdin: Request - read-out pKi | tested on human 5-HT6 receptor (Homo sapiens (Human)) | molecule Cl.O=S(=O)(c1ccc(Cl)cc1)c1ccc2oc3c(c2c1)CNCC3 [Example 32, hydrochloride]
stdout: 7.42

stdin: Request - read-out pKi | tested on human 5-HT6 receptor (Homo sapiens (Human)) | molecule Cl.O=S(=O)(c1ccc(Cl)cc1)c1cc(Cl)c2oc3c(c2c1)CNCC3 [Example 49, hydrochloride]
stdout: 8.72

stdin: Request - read-out pKi | tested on human 5-HT6 receptor (Homo sapiens (Human)) | molecule N#Cc1cc(S(=O)(=O)c2ccc(F)cc2)cc2c3c(oc12)CCNC3
stdout: 7.74

stdin: Request - read-out pKi | tested on human 5-HT6 receptor (Homo sapiens (Human)) | molecule [O-][S+](c1ccccc1)c1cc(Cl)c2oc3c(c2c1)CNCC3 (stereo not drawn) [Example 231]
stdout: 8.51
